pIC50: −log10 of the molar value.
// molecules with reported pIC50 on Xanthine dehydrogenase/oxidase (Bos taurus, UniProt P80457), multi-publication
MEASURED ENDPOINT: pIC50

Answered cases to consult:
| SMILES TEXT | pIC50 |
| --- | --- |
| N#Cc1cn(-c2ccc(C(=O)O)cc2)cc1-c1ccccc1Cl | 8.28 |
| N#Cc1cn(-c2ccc(C(=O)O)cc2)nc1-c1ccccc1F | 8.54 |
| N#Cc1cn(-c2ccc(C(=O)O)c(O)c2)c2cc(OCC3CCC3)ccc12 | 7.06 |
| N#Cc1cn(-c2ccc(C(=O)O)cc2)c2ccc(F)cc12 | 7.24 |
| Cc1nc(-c2cc(C#N)c3c(F)cccc3c2)sc1C(=O)O | 8.15 |
| N#Cc1cn(-c2ccc(C(=O)O)c(O)c2)c2cc(F)c(F)cc12 | 8.19 |

P. Cc1nc(-c2cc(C#N)c3c(c2)c(C)cn3C)sc1C(=O)O
Q. N#Cc1cn(-c2ccc(C(=O)O)cc2)cc1-c1ccc2c(c1)OCCO2
R. N#Cc1cn(-c2ccc(C(=O)O)c(O)c2)c2cc(OCCCO)ccc12
stdin: Descending sort on pIC50 required. # the answer lists labels in the order requested
stdout: Q, R, P

a. COc1cccc2c1c(C#N)cn2-c1ccc(C(=O)O)cc1
b. N#Cc1cn(-c2ccc(C(=O)O)cc2)cc1-c1ccccc1C(F)(F)F
c. O=C(O)c1ccnc(-c2cc([N+](=O)[O-])c3occc3c2)c1
d. CCOCCOc1ccc(-c2nc(C)c(C(=O)O)s2)cc1C#N
e. CN(C)c1cc2c(C#N)cn(-c3ccc(C(=O)O)cc3)c2cc1C(F)(F)F
stdin: Please list these in order of increasing pIC50. Thank you! The labels, placed in the requested order, form the answer.
stdout: c, e, a, b, d

I. CC(C)Oc1ccc2c(C#N)cn(-c3ccc(C(=O)O)c(O)c3)c2c1
II. Cc1nc(-c2ccc(N3CCOCC3)c(C#N)c2)sc1C(=O)O
stdin: Record comparison, field pIC50: mark the lower of I and II . Please indicate the selected item by its label.
stdout: I

1. N#Cc1cn(-c2ccc(C(=O)O)c(O)c2)c2cc(OCC(=O)O)ccc12
2. N#Cc1cn(-c2ccc(C(=O)O)c(O)c2)c2sccc12
3. Cc1nc(-c2ccc(OCCC(C)C)c(C#N)c2)sc1C(=O)O
4. N#Cc1cn(-c2ccc(C(=O)O)c(O)c2)c2cc(-c3ccccc3)ccc12
stdin: Write the entries in order, lowest recorded pIC50 first. Rank the items, then write their labels in that order.
stdout: 4, 2, 1, 3

I. COc1ccc2c(c1)c(C#N)cn2-c1ccc(C(=O)O)c(O)c1
II. Cn1ccc2cc(-c3cc(C(=O)O)ccn3)cc(C#N)c21
stdin: Could you please tell me which of these two has the higher pIC50: I or II ? Answer by stating the label of the chosen item.
stdout: I

P. CC(=O)NCCOc1ccc2c(C#N)cn(-c3ccc(C(=O)O)c(O)c3)c2c1
Q. CS(=O)(=O)Nc1ccc2c(c1)c(C#N)cn2-c1ccc(C(=O)O)cc1
R. N#Cc1cc(-c2ccc(C(=O)O)s2)ccc1N1CCCCC1
stdin: Ordering criterion: pIC50; begin with the maximum. Returns: the labels listed in the requested order.
stdout: R, P, Q

I. Cc1nc(-c2cc(C#N)c3c(C)ccc(F)c3c2)sc1C(=O)O
II. COCCNC(=O)c1ccc2c(c1)c(C#N)cn2-c1ccc(C(=O)O)cc1
stdin: Input pair: I , II . Output: entry with lower pIC50. Which one? Tell me its label.
stdout: II
(II: 7.78, I: 8.15)

----------
Here's a roundup of IC50 values tested on Xanthine dehydrogenase/oxidase (Bos taurus, UniProt P80457), taken from various published works.
MEASURED ENDPOINT: IC50 (nM)

| SMILES TEXT | MEASUREMENT TARGET | READOUT UNIT | OBSERVED VALUE |
| --- | --- | --- | --- |
| CCOc1ccc(-c2nc(C)c(C(=O)O)s2)cc1Cl | Xanthine dehydrogenase/oxidase (Bos taurus, UniProt P80457) | nM | 2.3 |

A. CCC(CC)COc1ccc(-c2nc(C)c(C(=O)O)s2)cc1Cl
B. CC1CCN(c2ccc(-c3cc(C(=O)O)ccn3)cc2C#N)CC1
C. Cc1ccc2c(-c3ccc(C(=O)O)c(O)c3)cc(C#N)n2n1
stdin: Given 3 compounds, produce a descending ranking by IC50. API: response body holds the labels in the requested order.
stdout: C, A, B
(C: 5 nM, A: 2.7 nM, B: 1.3 nM)

----------
pIC50: −log10 of the molar value.
Before we begin, note that these pIC50 values for Xanthine dehydrogenase/oxidase (Bos taurus, UniProt P80457) originate from several publications.
MEASURED ENDPOINT: pIC50

| SMILES TEXT | pIC50 |
| --- | --- |
| N#Cc1cn(-c2ccc(C(=O)O)c(O)c2)c2ccc(O)cc12 | 8.26 |
| Cc1nc(-c2ccc(OCC3CCCCC3)cc2)sc1C(=O)O | 7.34 |
| Cc1cccn2c(-c3ccc(C(=O)O)cc3)cc(C#N)c12 | 8.15 |

A. N#Cc1cn(-c2ccc(C(=O)O)c(O)c2)c2cccc(F)c12
B. N#Cc1cc(-c2cnc(C(=O)O)c(O)c2)n2ccccc12
stdin: Hey, between A and B which has a smaller measured pIC50? Answer by quoting the chosen item's label.
stdout: B

A. Cc1cccc(-c2ccc(-c3nc(C)c(C(=O)O)s3)cc2C#N)c1
B. Cc1ccn2c(-c3ccc(C(=O)O)c(O)c3)cc(C#N)c2c1Cl
C. Cc1nc(-c2cc(C#N)c3[nH]ccc3c2)sc1C(=O)O
D. N#Cc1cn(-c2ccc(C(=O)O)c(O)c2)c2ccc(-c3ccccc3)cc12
E. CCc1cccn2c(-c3ccc(C(=O)O)cc3)cc(C#N)c12
stdin: List items by pIC50 in falling order. Would you mind listing the labels in the order asked for?
stdout: A, B, E, C, D

I. N#Cc1cc(-c2ccc(C(=O)O)s2)n2ccccc12
II. COc1cc2c(C#N)cc(-c3ccc(C(=O)O)cc3)n2cc1C
III. Cc1nc(-c2ccc(OC(C)C)c([N+](=O)[O-])c2)sc1C(=O)O
stdin: List items by pIC50 in falling order. // ordering of labels required in reply
stdout: III, I, II

I. COc1ccn2c(-c3ccc(C(=O)O)c(O)c3)cc(C#N)c2c1
II. N#Cc1cc(-c2ccc(C(=O)O)cc2)c2ccccn12
stdin: Between I and II , whose recorded pIC50 is greater? Output the label that corresponds to your choice.
stdout: I

----------
Literature roundup of Xanthine dehydrogenase/oxidase (Bos taurus) data, read-out IC50.
MEASURED ENDPOINT: IC50 (µM)

| SMILES TEXT | READOUT UNIT | IC50 |
| --- | --- | --- |
| N#Cc1cc(-c2ccc(C(=O)O)cc2)n2cccc(F)c12 | µM | 0.009 |
| COc1cccn2c(-c3ccc(C(=O)O)cc3)cc(C#N)c12 | µM | 0.005 |
| Cc1nc(-c2ccc(OCC(C)(C)C)c(C#N)c2)sc1C(=O)O | µM | 0.0019 |
| N#Cc1cc(-c2cc(C(=O)O)ccn2)ccc1OCc1ccccn1 | µM | 0.01 |
| COc1ccccc1-c1cn(-c2ccc(C(=O)O)cc2)cc1C#N | µM | 0.00598 |
| Cc1cc2c(C#N)cn(-c3ccc(C(=O)O)cn3)c2cc1F | µM | 0.013 |
| N#Cc1cc(-c2ccc(C(=O)O)c(O)c2)n2cc(F)c(C(F)(F)F)cc12 | µM | 0.006 |
| N#Cc1cn(-c2ccc(C(=O)O)cc2)c2ccc(C(=O)O)cc12 | µM | 0.0433 |
| N#Cc1cn(-c2ccc(C(=O)O)cc2)c2cccc(OCc3ccccc3)c12 | µM | 0.096 |
| Cc1nc(-c2cc(C#N)c3c(c2)c(C)cn3CC(C)C)sc1C(=O)O | µM | 0.031 |

P. Cc1nc(-c2cc(C#N)c3ccccn23)sc1C(=O)O
Q. N#Cc1cn(-c2ccc(C(=O)O)cc2)cc1-c1nccs1
R. N#Cc1cn(-c2ccc(C(=O)O)c(O)c2)c2cc(OCCN)ccc12
S. Cc1nc(-c2cccc(C(=O)O)c2)sc1C(=O)O
T. Cc1nc(-c2ccc(OCC(C)C)c(Br)c2)sc1C(=O)O
stdin: Hi! Can you put these in order of IC50, lowest number first? Write out the labels following the order that was asked for.
stdout: T, Q, R, P, S

P. N#Cc1cn(-c2ccc(C(=O)O)cc2)c2ccc(-c3ccccc3)cc12
Q. Cc1ccn2c(-c3ccc(C(=O)O)c(O)c3)cc(C#N)c2c1C
stdin: Returns the identifier with the smallest measured IC50 among P and Q . Kindly state the label of the option you pick.
stdout: Q
(Q: 0.005 µM, P: 0.0206 µM)

1. N#Cc1cc(-c2ccc(C(=O)O)cc2)cc2ccccc12
2. CC(C)(C)c1ccc(-c2ccc(-c3ccc(C(=O)O)s3)cc2C#N)cc1
stdin: Just tell me: smaller IC50 value, 1 or 2 ? Response format: the label of the selected entry.
stdout: 2
